Measured values drawn from patent US12404289B2 for this set.

Below is a list of entries, each paired with its recorded pEC50 value.
test system: Respiratory syncytial virus (RSV) strain A2; test: Hep-2 RSV2 384-well assay (EC50-HEP2-384); assay type: cell-based; details: HEp-2 cells, RSV A2, MOI=4, 4 days, Table 3
Please report pEC50 as the negative decimal logarithm of the molar concentration, giving only the number.

Field: example entries. Status: answers known.
molecule | pEC50
CC(=O)O[C@H]1[C@@H](OC(C)=O)[C@](C#N)(c2ccc3c(N)ncnn23)O[C@@H]1COP(=O)(N[C@@H](C)C(=O)OC1CC(C)(C)C1)Oc1ccc(C(C)(C)C)cc1 (single isomer, unassigned) [Example 96b] | 7.55
C[C@H](NP(=O)(OC[C@H]1O[C@@](C#N)(c2ccc3c(N)ncnn23)[C@H](O)[C@@H]1O)Oc1ccc(C(C)(C)C)cc1)C(=O)OC1CC2(CCCC2)C1 (stereo partly drawn) [Example 97b] | 6.98

Next up:
Give Respiratory syncytial virus (RSV) strain A2 pEC50 for CC(=O)O[C@H]1[C@@H](OC(C)=O)[C@](C#N)(c2ccc3c(N)ncnn23)O[C@@H]1COP(=O)(N[C@@H](C)C(=O)OC1CC2(CCC2)C1)Oc1ccccc1 (single isomer, unassigned) [Example 45b]
7.62

====

test system: Respiratory syncytial virus (RSV) strain A2; assay: RSV antiviral assay (HEp-2, 96 well); type: cell-based; conditions: human respiratory syncytial virus, HEp-2, 96 h, read-out: EC50 RSV HEP2 96, HEp-2 cells, RSV A2, MOI=4, 4 days, 96 well; Table 3
// map EC50 to label using 0 = under 20 nM, 1 = from 20 nM up to 50 nM, 2 = 50 nM and over

Below are worked cases with known answers.
compound | measured.on | assigned.label
CCCCCCOC(=O)[C@H](C)NP(=O)(OC[C@H]1O[C@@](C#N)(c2ccc3c(N)ncnn23)[C@H](OC(=O)C(C)C)[C@@H]1OC(=O)C(C)C)Oc1ccc(C(C)(C)C)cc1 (stereo partly drawn) | Respiratory syncytial virus (RSV) strain A2 | 1
CC(C)C(=O)O[C@H]1[C@@H](OC(=O)C(C)C)[C@](C#N)(c2ccc3c(N)ncnn23)O[C@@H]1COP(=O)(N[C@@H](C)C(=O)OCCC(C)(C)C)Oc1ccc(C(C)(C)C)cc1 (stereo partly drawn) | Respiratory syncytial virus (RSV) strain A2 | 2
CCC(C)(C)COC(=O)[C@H](C)NP(=O)(OC[C@H]1O[C@@](C#N)(c2ccc3c(N)ncnn23)[C@H](OC(=O)C(C)C)[C@@H]1OC(=O)C(C)C)Oc1ccc(C(C)(C)C)cc1 (stereo partly drawn) | Respiratory syncytial virus (RSV) strain A2 | 0

Which band does CCC(C)(C)COC(=O)[C@H](C)NP(=O)(OC[C@H]1O[C@@](C#N)(c2ccc3c(N)ncnn23)[C@H](O)[C@@H]1O)Oc1ccc(C(C)(C)C)cc1 (stereo partly drawn) fall in?
1

Which band does CC(C)C(=O)O[C@H]1[C@@H](OC(=O)C(C)C)[C@](C#N)(c2ccc3c(N)ncnn23)O[C@@H]1COP(=O)(N[C@@H](C)C(=O)OCC1CCC1)Oc1ccccc1 (stereo partly drawn) fall in?
0

Which band does CCC(=O)O[C@@H]1[C@H](OC(=O)C(N)C(C)C)[C@@H](COP(=O)(N[C@@H](C)C(=O)OCC(CC)CC)Oc2ccccc2)O[C@@]1(C#N)c1ccc2c(N)ncnn12 (stereo in doubt) fall in?
1

Which band does CCCCCCOC(=O)[C@H](Cc1ccccc1)NP(=O)(OC[C@H]1O[C@@](C#N)(c2ccc3c(N)ncnn23)[C@H](O)[C@@H]1O)Oc1ccc(C(C)(C)C)cc1 (stereo partly drawn) fall in?
2

Which band does CCOC(=O)[C@H](C)NP(=O)(OC[C@H]1O[C@@](C#N)(c2ccc3c(N)ncnn23)[C@H](O)[C@@H]1O)Oc1ccc(C(C)C)cc1 (stereo partly drawn) [Example 63a] fall in?
2

Which band does CCC(CC)COC(=O)[C@H](C)NP(=O)(OC[C@H]1O[C@@](C#N)(c2ccc3c(N)ncnn23)[C@H](O)[C@@H]1O)Oc1ccc2ccccc2c1 (single isomer, unassigned) [Intermediate S3-a] fall in?
1

Which band does CCOC(=O)O[C@H]1[C@@H](OC(=O)OCC)[C@](C#N)(c2ccc3c(N)ncnn23)O[C@@H]1CO[P@@](=O)(N[C@@H](C)C(=O)OCC(CC)CC)Oc1ccccc1 fall in?
1

====

test: CC50 assay (cytopathology in HEp-2 cells); type: cell-based; conditions: human, HEp-2 cells, 4 days, CellTiter-Glo; Table 1; read-out: RSV CC50
parameter.measured: CC50 at 4 days

Field: example entries. Status: answers known.
molecule | test.result
COC(C)(C)COC(=O)[C@H](C)NP(=O)(OC[C@H]1O[C@@](C#N)(c2ccc3c(N)ncnn23)[C@H](O)[C@@H]1O)Oc1ccccc1 (stereo partly drawn) | > 50 µM
CCC(=O)O[C@H]1[C@@H](OC(=O)CC)[C@](C#N)(c2ccc3c(N)ncnn23)O[C@@H]1CO[P@@](=O)(N[C@@H](C)C(=O)OC(C)C)Oc1ccccc1 | > 40 µM

Form field: reported CC50 at 4 days of CC(=O)O[C@H]1[C@@H](OC(C)=O)[C@](C#N)(c2ccc3c(N)ncnn23)O[C@@H]1CO[P@@](=O)(N[C@@H](C)C(=O)OC(C)C)Oc1ccccc1
> 50 µM

====

Below is a list of entries, each paired with its recorded EC50 value.
test system: Respiratory syncytial virus (RSV) strain A2; assay: RSV antiviral assay (HEp-2, 96 well); type: cell-based; conditions: read-out: EC50 RSV HEP2 96; HEp-2 cells, RSV A2, MOI=4, 4 days, 96 well; Table 3
Could you give me the number in nM? Just the number is fine.

Field: example entries. Status: answers known.
molecule | parameter.measured | scale.unit | test.result
CC(C)C(=O)O[C@H]1[C@@H](OC(=O)C(C)C)[C@](C#N)(c2ccc3c(N)ncnn23)O[C@@H]1COP(=O)(N[C@@H](C)C(=O)OCCC(C)(C)C)Oc1ccccc1 (single isomer, unassigned) [Example 56b] | EC50 | nM | 74.7
CCC(CC)COC(=O)[C@H](C)NP(=O)(OC[C@H]1O[C@@](C#N)(c2ccc3c(N)ncnn23)[C@H](O)[C@@H]1O)Oc1cccc(C(C)(C)C)c1 (some centres unmarked) [Example 68b] | EC50 | nM | 34.4
CC(C)C(=O)O[C@H]1[C@@H](OC(=O)C(C)C)[C@](C#N)(c2ccc3c(N)ncnn23)O[C@@H]1COP(=O)(N[C@@H](C)C(=O)OC1CCC1)Oc1ccc(C(C)(C)C)cc1 (single isomer, unassigned) [Example 50b] | EC50 | nM | 8.52
CCC(CC)COC(=O)[C@H](C)NP(=O)(OC[C@H]1O[C@@](C#N)(c2ccc3c(N)ncnn23)[C@H](OC(=O)C(C)C)[C@@H]1OC(=O)C(C)C)Oc1ccc2ccccc2c1 (some centres unmarked) [Example 69b] | EC50 | nM | 36.9

Next up:
Give Respiratory syncytial virus (RSV) strain A2 EC50 for CCC(=O)O[C@H]1[C@@H](OC(=O)CC)[C@](C#N)(c2ccc3c(N)ncnn23)O[C@@H]1COP(=O)(N[C@@H](C)C(=O)OC1CCC1)Oc1ccc(C2CC2)cc1 (single isomer, unassigned) [Example 54b]
20.9
